experiment: BHET released, HPLC; higher = more BHET released; extreme values may be limits of the assay; conditions: PET substrate: aFilm; 60 °C; pH 7.5; 24 h
Field: BHET released. Provide a value for each of the sequences that follow.
Entry format: amount then unit.

[ask] Need BHET released, item QDNPYERGPDPTEDSIEAIRGPFSVATERVSSFASGFGGGTIYYPRETDEGTFGAVAVAPGFTASQGSMSWYGERVASHGFIVFTIDTNTRLDAPGQRGRQLLAALDYLVERSDRKVRERLDPNRLAVMGHSMGGGGSLEATVMRPSLKASIPLTPWHLDKTWGQVQVPTFIIGAELDTIAPVSTHAKPFYESLPSSLPKAYMELCGATHFAPNIPNTTIAKYVISWLKRFVDEDTRYSQFLCPNPTDRAICEYRSTCPY [Cut190*SS]
[reply] 0.0117 mM

[ask] Proceed to ADNPYQRGPDPTNASIEAATGPFAVGTQPIVGASGFGGGQIYYPTDTSQTYGAVVIVPGFISVWAQLAWLGPRLASQGFVVIGIETSTITDLPDPRGDQALAALDWATTRSPVRSRIDRTRLAAAGWSMGGGGLRRAACQRPSLKAIVGMAPWNTEKNWSCVTVPTLFFGGSSDAVASPNDHAKPFYNSITRAEKDYIELCNADHFFPTSANTTMAKYFISWLKRWVDNDTRYTQFLCPGPSTGLFAPVCASMNTCPF [CaPETaseM9]
[reply] 0 mM

[ask] # repeat for SNPYQRGPNPTRSALTADGPFSVATYTVSRLSVSGFGGGVIYYPTGTSLTFGGIAMSPGYTADASSLAWLGRRLASHGFVVLVINTNSRFDGPDSRASQLSAALNYLRTSSPSAVRARLDANRLAVAGHSMGGGGTLRIAEQNPSLKAAVPLTPWHTDKTFNTSVPVLIVGAEADTVAPVSQHAIPFYQNLPSTTPKVYVELCNASHIAPNSNNAAISVYTISWMKLWVDNDTRYRQFLCNVNDPALCDFRTNNRHCQ [LCC-ICCG]
[reply] 0.0155 mM

[ask] Next: SNPYQRGPNPTRSALTADGPFSVATYTVSRLSVSGFGGGVIYYPTGTSLTFGGIAMSPGYTADASSLAWLGRRLASHGFVVLVINTNSRFDGPDSRASQLSAALNYLRTSSPSAVRARLDANRLAVAGHSMGGGGTLRIAEQNPSLKAAVPLTPWHTDKTFNTSVPVLIVGAEADTVAPVSQYAIPFYQNLPSTTPKVYVELCNASHIAPNSDNAAISVYTISWMKLWVDNDTRYRQFLCNVNDPALCDFRTNNRHCQ [LCC-A2]
[reply] 0 mM

[ask] Similarly, SNPYQRGPNPTRSALTADGPFSVATYTVSRLSVSGFGGGVIYYPTGTSLTFGGIAMSPGYTADASSLAWLGRRLASHGFVVLVINTNSRFDGPDSRASQLSAALNYLRTSDPSAVRARLDANRLAVAGHSMGGGATLRIAEQNPSLKAAIPLTPWHTQKTFNTSVPVLIVGAEADTVAPVSQHAIPFYQNLPSTTPKVYVELCNASHIAPNSNNAAISVYTISWMKLWVDNDTRYRQFLCNVNDPALCDFRTNNRHCQ [LCC-ICCG DAQI] ?
[reply] 0.0548 mM

----------
For each record, write down the corresponding terephthalic acid.
assay: terephthalic acid (TPA) released, HPLC; higher = more TPA released; extreme values may be limits of the assay; details: PET substrate: aFilm; 60 °C; pH 4.5; 24 h
Only the number, expressed in mM, is required.

[ask] # lookup: terephthalic acid of QTNPYARGPNPTAASLEASAGPFTVRSFTVSRPSGYGAGTVYYPTNAGGTVGAIAIVPGYTARQSSIKWWGPRLASHGFVVITIDTNSTFDYPSSRSSQQMAALRQVASLNGDSSSPIYGKVDTARMGVMGHSMGGGASLRSAANNPSLKAAIPQAPWDSQTNFSSVTVPTLIFACENDSIAPVNSHALPIYDSMSRNAKQFLEINGGSHSCANSGNSNQALIGKKGVAWMKRFMDNDTRYSTFACENPNSTAVSDFRTANCS [DuraPETase]
[reply] 0.00462

[ask] Try this sequence next: ANPYERGPNPTDALLEARSGPFSVSEENVSRLSASGFGGGTIYYPRENNTYGAVAISPGYTGTEASIAWLGERIASHGFVVITIDTITTLDQPDSRAEQLNAALNHMINRASSTVRSRIDSSRLAVMGHSMGGGGSLRLASQRPDLKAAIPLTPWHLNKNWSSVTVPTLIIGADLDTIAPVATHAKPFYNSLPSSISKAYLELDGATHFAPNIPNKIIGKYSVAWLKRFVDNDTRYTQFLCPGPRDGLFGEVEEYRSTCPF [TfCut2]
[reply] 0

[ask] What do we get for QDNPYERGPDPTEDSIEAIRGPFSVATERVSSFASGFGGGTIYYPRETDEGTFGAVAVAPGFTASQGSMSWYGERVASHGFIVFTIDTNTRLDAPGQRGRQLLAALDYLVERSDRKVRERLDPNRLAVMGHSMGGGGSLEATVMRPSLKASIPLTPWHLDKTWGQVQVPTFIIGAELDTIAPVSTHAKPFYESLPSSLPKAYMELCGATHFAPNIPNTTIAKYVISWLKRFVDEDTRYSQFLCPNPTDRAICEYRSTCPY [Cut190*SS] ?
[reply] 0

----------
Kindly state PET hydrolysis product formed for each of the entries shown.
test: PET hydrolysis product formed (TPA+MHET+BHET, UV-Vis) per mg enzyme (mmol/mg enzyme); higher = more PET depolymerisation activity; extreme values may be limits of the assay; conditions: PET substrate: aFilm; 70 °C; pH 8.5; 2 h
In your answer, state the number alone without any accompanying words.

[ask] Which measured PET hydrolysis product formed value corresponds to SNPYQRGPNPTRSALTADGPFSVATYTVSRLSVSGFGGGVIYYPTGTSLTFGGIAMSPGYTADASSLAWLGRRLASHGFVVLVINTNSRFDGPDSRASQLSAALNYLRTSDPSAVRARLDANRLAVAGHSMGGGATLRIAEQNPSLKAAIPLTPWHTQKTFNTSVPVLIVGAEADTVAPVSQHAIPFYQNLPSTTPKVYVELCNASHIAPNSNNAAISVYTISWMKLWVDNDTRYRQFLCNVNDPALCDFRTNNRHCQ [LCC-ICCG DAQI] ?
[reply] 0.0593

[ask] Can you handle QTNPYARGPDPTAASLEASAGPFTVRSFTVSRPSGYGAGTVYYPTNAGGTVGAIAIVPGYTARQSSIKWWGPRLASHGFVVITIDTNSTLDQPESRSSQQMAALEQVASLNGTSSSPIYGKVDTARMGVMGWSMGGGGSLISACNNPSLKAAVVQAPWHSSTNFSCVTVPTLIFACENDSIAPVNSSALPIYDSMSENAKQFLEICGGSHSCANTGNSDQALIGKKGVAWMKRFMDNDTRYSTFACENPNSTRVCDFRTANCS [Z1-PETase] next?
[reply] 0

[ask] Consider next the sequence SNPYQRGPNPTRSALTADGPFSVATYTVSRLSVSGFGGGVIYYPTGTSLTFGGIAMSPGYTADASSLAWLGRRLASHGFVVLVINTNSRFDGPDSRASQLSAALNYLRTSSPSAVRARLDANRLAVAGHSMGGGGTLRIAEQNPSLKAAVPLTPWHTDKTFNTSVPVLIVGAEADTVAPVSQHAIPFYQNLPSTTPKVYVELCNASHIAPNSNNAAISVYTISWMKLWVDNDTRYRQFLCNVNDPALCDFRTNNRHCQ [LCC-ICCG] in the same way.
[reply] 0.0682

[ask] Continue with SNPYQRGPNPTRSALTADGPFSVRTYTISRLSVSGFGGGVIYYPTGTSLTFGGIAMSPGYTADASSLAWLGRRLASHGFVVLVINTNSRFDGPDSRASQLSAALNYLRTSSPSAVRARLDANRLAVAGHSMGGGGTLRIAEQNPSLKAAVPLTPWHTDKTFNTSVPVLIVGAEADTVAPVSQHAIPFYQNLPSTTPKVYVELCNASHIAPNSPNAAISVYTISWMKLWVDNDTRYRQFLCNVNDPALCDFRTNNRHCQ [LCC-ICCG RIP]
[reply] 0.0612

----------
Record form. Attribute: BHET released. Fill in for each entry.
test: BHET released, HPLC; higher = more BHET released; extreme values may be limits of the assay; conditions: PET substrate: aFilm; 70 °C; pH 9.5; 24 h
Answer with a number only, understood to be in mM.

[ask] Param item = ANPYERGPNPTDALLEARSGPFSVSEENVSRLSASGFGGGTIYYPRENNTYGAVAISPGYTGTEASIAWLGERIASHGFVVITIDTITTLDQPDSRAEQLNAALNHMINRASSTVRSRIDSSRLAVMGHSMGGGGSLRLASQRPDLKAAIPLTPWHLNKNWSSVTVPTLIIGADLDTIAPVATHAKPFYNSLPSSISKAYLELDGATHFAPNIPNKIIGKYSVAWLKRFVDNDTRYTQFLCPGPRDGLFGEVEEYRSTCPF [TfCut2] ; retrieve measured BHET released.
[reply] 0

[ask] Next up: QTNPYARGPNPTAASLEASAGPFTVRSFTVARPVGYGAGTVYYPTNAGGTVGAIAIVPGYTATQSSINWWGPRLASHGFVVITIDTNSTLDKPESRSSQQMAALRQVASLNGTSSSPIYGKVDTARGGVMGWSMGGGGSLISAANNPSLKAAAVMAPWHSSTNFSSVTVPTLIFACENDRIAPVKEYALPIYDSMSLNAKQFLEICGGSHSCACSGNSNQALIGMKGVAWMKRFMDNDTRYSQFACENPNSTAVCDFRTANCS [HotPETase]
[reply] 0

[ask] Would you kindly repeat that for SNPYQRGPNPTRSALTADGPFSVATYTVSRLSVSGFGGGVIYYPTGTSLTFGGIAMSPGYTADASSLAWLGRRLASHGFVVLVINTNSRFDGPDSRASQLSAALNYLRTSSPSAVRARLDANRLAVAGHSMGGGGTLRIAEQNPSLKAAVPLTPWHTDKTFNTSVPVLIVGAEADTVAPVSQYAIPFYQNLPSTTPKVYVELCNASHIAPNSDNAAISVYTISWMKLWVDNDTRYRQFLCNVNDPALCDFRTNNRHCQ [LCC-A2] ?
[reply] 0
